test: Stability: degradation products (DP) and appearance (color) under stress conditions; type: physicochemical; settings: Solid stage, 1 week 80° C., tight container; Bulk (HPLC)
measure: DP (%)
Give bare numbers, in %.

Some solved cases for reference:
In [3]: df
Out[3]:
                                   compound  reported_value
0  CS(=O)(=O)O.Cn1c(Nc2ccc(C(F)(F)F)cc2)nc2cc(Oc3ccnc(-c4ncc(C(F)(F)F)[nH]4)c3)ccc21 [Mesylate]             0.5
1  Cn1c(Nc2ccc(C(F)(F)F)cc2)nc2cc(Oc3ccnc(-c4ncc(C(F)(F)F)[nH]4)c3)ccc21             0.6
2  CCS(=O)(=O)O.Cn1c(Nc2ccc(C(F)(F)F)cc2)nc2cc(Oc3ccnc(-c4ncc(C(F)(F)F)[nH]4)c3)ccc21 [Esylate]             0.5

Now for the compound whose DP we want.
QUERY: Reported DP for Cn1c(Nc2ccc(C(F)(F)F)cc2)nc2cc(Oc3ccnc(-c4ncc(C(F)(F)F)[nH]4)c3)ccc21.O=C(O)/C=C\C(=O)O [Maleate] : what is it?
RESULT: 0.7

---

assay: Aqueous solubility of salts in deionized water; conditions: pH of the saturated aqueous solutions
So I've got a bunch of compounds here, and I need their pH values.
Numbers only.

>>> print(df.to_string())
                                   compound  reported_value
0  Cn1c(Nc2ccc(C(F)(F)F)cc2)nc2cc(Oc3ccnc(-c4ncc(C(F)(F)F)[nH]4)c3)ccc21 [API]           5.235
1  Cl.Cn1c(Nc2ccc(C(F)(F)F)cc2)nc2cc(Oc3ccnc(-c4ncc(C(F)(F)F)[nH]4)c3)ccc21 [Hydrochloride]           2.079
2  CS(=O)(=O)O.Cn1c(Nc2ccc(C(F)(F)F)cc2)nc2cc(Oc3ccnc(-c4ncc(C(F)(F)F)[nH]4)c3)ccc21 [Mesylate]           1.992

QUERY: Reported pH for Cn1c(Nc2ccc(C(F)(F)F)cc2)nc2cc(Oc3ccnc(-c4ncc(C(F)(F)F)[nH]4)c3)ccc21.O=C(O)/C=C\C(=O)O [Maleate] : what is it?
RESULT: 2.415

---

Experiment: Bioavailability study of API and salts of API in dogs
Format: in vivo, beagle dogs
Settings: beagle, dog, plasma, single 100 mg oral dose, fasting, mean and sd
Experimental: For comparison, a microemulsion of the free base was also studied. The study was performed with 4 dogs, weighing 9-15 kg each. A crossover design with a washout period of at least 1 week was used. The dogs were given a single oral dose of 100 mg of test compound, administered under fasting conditions.
So I've got a bunch of molecules here, and I need their Cmax values.
Returns: string containing the number followed by the unit.

Some solved cases for reference:
                                   molecule  measure  reported_value
0  Cn1c(Nc2ccc(C(F)(F)F)cc2)nc2cc(Oc3ccnc(-c4ncc(C(F)(F)F)[nH]4)c3)ccc21.O=C(O)/C=C\C(=O)O [Maleate]     Cmax      1220 ng/mL
1  CS(=O)(=O)O.Cn1c(Nc2ccc(C(F)(F)F)cc2)nc2cc(Oc3ccnc(-c4ncc(C(F)(F)F)[nH]4)c3)ccc21 [Mesylate]     Cmax      1570 ng/mL

Now for the molecule whose Cmax we want.
QUERY: Reported Cmax for `Cn1c(Nc2ccc(C(F)(F)F)cc2)nc2cc(Oc3ccnc(-c4ncc(C(F)(F)F)[nH]4)c3)ccc21` : what is it?
RESULT: 62.9 ng/mL
